Item-by-item account of viability, T/C
- System: NCI-H1417 complex spheroids, growth % test/control
- Assay Info: Anticancer human tumor NCI-H1417 cell line growth inhibition [Asc];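 further: spheroids exposed to compounds for 7 days; 100% = DMSO vehicle control wells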
- Test Parameters: second compound 3.16 µM; first compound 0.316 µM; active compounds read low
Record the value in %, omitting the unit from your answer.

I am curious: what viability, T/C value has been reported for CCN1CCN(Cc2ccc(Nc3ncc(F)c(-c4cc(F)c5nc(C)n(C(C)C)c5c4)n3)nc2)CC1 + Cc1c(S(C)(=O)=O)c(-c2cc(F)cc(N3CCN(c4ccc(NS(=O)(=O)c5ccc(NC(CCN6CCC(C(=O)OCCCP(=O)(O)O)CC6)CSc6ccccc6)c(S(=O)(=O)C(F)(F)F)c5)cc4)CC3)c2)c(-c2ccc(Cl)cc2)n1C(C)C ? 2.68

Note, next up: CNC(C)C(=O)NC1CN(S(=O)(=O)c2cccc(S(=O)(=O)N3CCC4CCC(C(=O)NC(c5ccccc5)c5ccccc5)N4C(=O)C(NC(=O)C(C)NC)C3)c2)CCC2CCC(C(=O)NC(c3ccccc3)c3ccccc3)N2C1=O (configuration not stated) + Cc1c(S(C)(=O)=O)c(-c2cc(F)cc(N3CCN(c4ccc(NS(=O)(=O)c5ccc(NC(CCN6CCC(C(=O)OCCCP(=O)(O)O)CC6)CSc6ccccc6)c(S(=O)(=O)C(F)(F)F)c5)cc4)CC3)c2)c(-c2ccc(Cl)cc2)n1C(C)C 2.07

====

- Test system: NCI-H1417 complex spheroids, growth % test/control
- Assay Info: Anticancer human tumor NCI-H1417 cell line growth inhibition [Asc];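 further: spheroids exposed to compounds for 7 days; 100% = DMSO vehicle control wells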
- Test Parameters: second compound 3.16 µM; first compound 0.0316 µM; active compounds read low
Decision: viability, T/C beneath 2% gives yes; viability, T/C meeting or exceeding 2% gives no.

Solved cases below.
INSERT INTO assay_data (molecule, class) VALUES
  ('C#Cc1c(F)ccc2cc(O)cc(-c3ncc4c(N5CC6CCC(C5)N6)nc(OCC56CCCN5CC(F)C6)nc4c3F)c12 (stereo unspecified) + Cc1c(S(C)(=O)=O)c(-c2cc(F)cc(N3CCN(c4ccc(NS(=O)(=O)c5ccc(NC(CCN6CCC(C(=O)OCCCP(=O)(O)O)CC6)CSc6ccccc6)c(S(=O)(=O)C(F)(F)F)c5)cc4)CC3)c2)c(-c2ccc(Cl)cc2)n1C(C)C', 'no'),
  ('O=C(c1ccc(F)c(F)c1Nc1ccc(I)cc1F)N1CC(O)([C@@H]2CCCCN2)C1 + Cc1c(S(C)(=O)=O)c(-c2cc(F)cc(N3CCN(c4ccc(NS(=O)(=O)c5ccc(NC(CCN6CCC(C(=O)OCCCP(=O)(O)O)CC6)CSc6ccccc6)c(S(=O)(=O)C(F)(F)F)c5)cc4)CC3)c2)c(-c2ccc(Cl)cc2)n1C(C)C', 'no');

Does the reported viability, T/C of the following molecule sit strictly below 2%? CNC(C)C(=O)NC1CN(S(=O)(=O)c2cccc(S(=O)(=O)N3CCC4CCC(C(=O)NC(c5ccccc5)c5ccccc5)N4C(=O)C(NC(=O)C(C)NC)C3)c2)CCC2CCC(C(=O)NC(c3ccccc3)c3ccccc3)N2C1=O (stereo unspecified) + Cc1c(S(C)(=O)=O)c(-c2cc(F)cc(N3CCN(c4ccc(NS(=O)(=O)c5ccc(NC(CCN6CCC(C(=O)OCCCP(=O)(O)O)CC6)CSc6ccccc6)c(S(=O)(=O)C(F)(F)F)c5)cc4)CC3)c2)c(-c2ccc(Cl)cc2)n1C(C)C no

Note, next up: O=C(c1cc(Cc2n[nH]c(=O)c3ccccc23)ccc1F)N1CCN(C(=O)C2CC2)CC1 + Cc1c(S(C)(=O)=O)c(-c2cc(F)cc(N3CCN(c4ccc(NS(=O)(=O)c5ccc(NC(CCN6CCC(C(=O)OCCCP(=O)(O)O)CC6)CSc6ccccc6)c(S(=O)(=O)C(F)(F)F)c5)cc4)CC3)c2)c(-c2ccc(Cl)cc2)n1C(C)C no

Note, next up: Cn1ncnc1[C@H]1c2n[nH]c(=O)c3cc(F)cc(c23)N[C@@H]1c1ccc(F)cc1 + Cc1c(S(C)(=O)=O)c(-c2cc(F)cc(N3CCN(c4ccc(NS(=O)(=O)c5ccc(NC(CCN6CCC(C(=O)OCCCP(=O)(O)O)CC6)CSc6ccccc6)c(S(=O)(=O)C(F)(F)F)c5)cc4)CC3)c2)c(-c2ccc(Cl)cc2)n1C(C)C no

Note, next up: NC1CCC(NC2CC2c2ccccc2)CC1 (stereo unspecified) + Cc1c(S(C)(=O)=O)c(-c2cc(F)cc(N3CCN(c4ccc(NS(=O)(=O)c5ccc(NC(CCN6CCC(C(=O)OCCCP(=O)(O)O)CC6)CSc6ccccc6)c(S(=O)(=O)C(F)(F)F)c5)cc4)CC3)c2)c(-c2ccc(Cl)cc2)n1C(C)C yes

====

- System: NCI-H1417 complex spheroids, growth % test/control
- Assay Info: Anticancer human tumor NCI-H1417 cell line growth inhibition [Asc];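 further: spheroids exposed to compounds for 7 days; 100% = DMSO vehicle control wells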
- Test Parameters: second compound 0.0949 µM; first compound 0.1 µM; active compounds read low
Item-by-item account of viability, T/C
Record the value in %, omitting the unit from your answer.

Reference set, count: 2
INSERT INTO assay_data (compound, unit_of_measurement, numeric_readout) VALUES
  ('O=C(c1ccc(F)c(F)c1Nc1ccc(I)cc1F)N1CC(O)([C@@H]2CCCCN2)C1 + CCN1C(C(=O)NC23CCC(C(=O)O)(CC2)CC3)C(c2cccc(Cl)c2F)C2(C(=O)Nc3cc(Cl)ccc32)C12CCCCC2', '%', 84.1),
  ('NC1CCC(NC2CC2c2ccccc2)CC1 (stereo not drawn) + CCN1C(C(=O)NC23CCC(C(=O)O)(CC2)CC3)C(c2cccc(Cl)c2F)C2(C(=O)Nc3cc(Cl)ccc32)C12CCCCC2', '%', 66);

I am curious: what viability, T/C value has been reported for Cn1ncnc1[C@H]1c2n[nH]c(=O)c3cc(F)cc(c23)N[C@@H]1c1ccc(F)cc1 + CCN1C(C(=O)NC23CCC(C(=O)O)(CC2)CC3)C(c2cccc(Cl)c2F)C2(C(=O)Nc3cc(Cl)ccc32)C12CCCCC2 ? 38.1

====

- System: NCI-H1417 complex spheroids, growth % test/control
- Assay Info: Anticancer human tumor NCI-H1417 cell line growth inhibition [Asc];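 further: spheroids exposed to compounds for 7 days; 100% = DMSO vehicle control wells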
- Test Parameters: second compound 0.1 µM; first compound 0.00949 µM; active compounds read low
Item-by-item account of viability, T/C
Record the value in %, omitting the unit from your answer.

INSERT INTO results (molecule, unit_of_measurement, numeric_readout) VALUES
  ('Cc1nc(N2CCC3(CC2)COC(C)C3N)c(CO)nc1Sc1ccnc(N)c1Cl (centres undefined) + CNC(C)C(=O)NC1CN(S(=O)(=O)c2cccc(S(=O)(=O)N3CCC4CCC(C(=O)NC(c5ccccc5)c5ccccc5)N4C(=O)C(NC(=O)C(C)NC)C3)c2)CCC2CCC(C(=O)NC(c3ccccc3)c3ccccc3)N2C1=O', '%', 87.5),
  ('CCN1C(C(=O)NC23CCC(C(=O)O)(CC2)CC3)C(c2cccc(Cl)c2F)C2(C(=O)Nc3cc(Cl)ccc32)C12CCCCC2 (centres undefined) + CNC(C)C(=O)NC1CN(S(=O)(=O)c2cccc(S(=O)(=O)N3CCC4CCC(C(=O)NC(c5ccccc5)c5ccccc5)N4C(=O)C(NC(=O)C(C)NC)C3)c2)CCC2CCC(C(=O)NC(c3ccccc3)c3ccccc3)N2C1=O', '%', 103),
  ('NC(=O)C(=Cn1cnc(-c2cc(C(F)(F)F)cc(C(F)(F)F)c2)n1)c1cncnc1 + Cc1c(S(C)(=O)=O)c(-c2cc(F)cc(N3CCN(c4ccc(NS(=O)(=O)c5ccc(NC(CCN6CCC(C(=O)OCCCP(=O)(O)O)CC6)CSc6ccccc6)c(S(=O)(=O)C(F)(F)F)c5)cc4)CC3)c2)c(-c2ccc(Cl)cc2)n1C(C)C', '%', 51.9);

Proceeding to the next molecule to report its viability, T/C.
Given the entry NC(=O)C(=Cn1cnc(-c2cc(C(F)(F)F)cc(C(F)(F)F)c2)n1)c1cncnc1 + CNC(C)C(=O)NC1CN(S(=O)(=O)c2cccc(S(=O)(=O)N3CCC4CCC(C(=O)NC(c5ccccc5)c5ccccc5)N4C(=O)C(NC(=O)C(C)NC)C3)c2)CCC2CCC(C(=O)NC(c3ccccc3)c3ccccc3)N2C1=O , what viability, T/C was observed with NCI-H1417 complex spheroids, growth % test/control? 105

====

- Test system: NCI-H1417 complex spheroids, growth % test/control
- Assay Info: Anticancer human tumor NCI-H1417 cell line growth inhibition [Asc];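 further: spheroids exposed to compounds for 7 days; 100% = DMSO vehicle control wells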
- Test Parameters: second compound 0.3 µM; first compound 0.01 µM; active compounds read low
- Text: Multicellular complex tumor spheroid response to apoptosis pathway targeting inhibitors Alrizomadlin, Pelcitoclax, and Dasminapant in combination with a variety of drugs and investigational agents in selected tumor cell lines […] Compounds. […] If the clinical Cmax for an agent had not been determined, the highest concentration tested was 10 microM. […]
Test Readout: viability, T/C (%)
Record the value in %, omitting the unit from your answer.

Reference set, count: 5
INSERT INTO measurements (compound, test_readout, unit_of_measurement, numeric_readout) VALUES
  ('Cn1ncnc1[C@H]1c2n[nH]c(=O)c3cc(F)cc(c23)N[C@@H]1c1ccc(F)cc1 + CCN1C(C(=O)NC23CCC(C(=O)O)(CC2)CC3)C(c2cccc(Cl)c2F)C2(C(=O)Nc3cc(Cl)ccc32)C12CCCCC2', 'viability, T/C', '%', 48.5),
  ('COc1c(OCCCN2CCOCC2)ccc2c3n(c(=NC(=O)c4cnc(N)nc4)nc12)CCN3 + CCN1C(C(=O)NC23CCC(C(=O)O)(CC2)CC3)C(c2cccc(Cl)c2F)C2(C(=O)Nc3cc(Cl)ccc32)C12CCCCC2', 'viability, T/C', '%', 93.6),
  ('O=C(c1ccc(F)c(F)c1Nc1ccc(I)cc1F)N1CC(O)([C@@H]2CCCCN2)C1 + CCN1C(C(=O)NC23CCC(C(=O)O)(CC2)CC3)C(c2cccc(Cl)c2F)C2(C(=O)Nc3cc(Cl)ccc32)C12CCCCC2', 'viability, T/C', '%', 76.9),
  ('CNC(C)C(=O)NC1CN(S(=O)(=O)c2cccc(S(=O)(=O)N3CCC4CCC(C(=O)NC(c5ccccc5)c5ccccc5)N4C(=O)C(NC(=O)C(C)NC)C3)c2)CCC2CCC(C(=O)NC(c3ccccc3)c3ccccc3)N2C1=O (stereo unspecified) + CCN1C(C(=O)NC23CCC(C(=O)O)(CC2)CC3)C(c2cccc(Cl)c2F)C2(C(=O)Nc3cc(Cl)ccc32)C12CCCCC2', 'viability, T/C', '%', 118),
  ('CCN1CCN(Cc2ccc(Nc3ncc(F)c(-c4cc(F)c5nc(C)n(C(C)C)c5c4)n3)nc2)CC1 + CCN1C(C(=O)NC23CCC(C(=O)O)(CC2)CC3)C(c2cccc(Cl)c2F)C2(C(=O)Nc3cc(Cl)ccc32)C12CCCCC2', 'viability, T/C', '%', 100);

Proceeding to the next compound to report its viability, T/C.
Given the entry NC1CCC(NC2CC2c2ccccc2)CC1 (stereo unspecified) + CCN1C(C(=O)NC23CCC(C(=O)O)(CC2)CC3)C(c2cccc(Cl)c2F)C2(C(=O)Nc3cc(Cl)ccc32)C12CCCCC2 , what viability, T/C was observed with NCI-H1417 complex spheroids, growth % test/control? 61
